Biological target: Penicillin-binding protein 2x (Streptococcus pneumoniae serotype 4 (strain ATCC BAA-334 / TIGR4), UniProt P14677)
Sequence (P14677 whole entry): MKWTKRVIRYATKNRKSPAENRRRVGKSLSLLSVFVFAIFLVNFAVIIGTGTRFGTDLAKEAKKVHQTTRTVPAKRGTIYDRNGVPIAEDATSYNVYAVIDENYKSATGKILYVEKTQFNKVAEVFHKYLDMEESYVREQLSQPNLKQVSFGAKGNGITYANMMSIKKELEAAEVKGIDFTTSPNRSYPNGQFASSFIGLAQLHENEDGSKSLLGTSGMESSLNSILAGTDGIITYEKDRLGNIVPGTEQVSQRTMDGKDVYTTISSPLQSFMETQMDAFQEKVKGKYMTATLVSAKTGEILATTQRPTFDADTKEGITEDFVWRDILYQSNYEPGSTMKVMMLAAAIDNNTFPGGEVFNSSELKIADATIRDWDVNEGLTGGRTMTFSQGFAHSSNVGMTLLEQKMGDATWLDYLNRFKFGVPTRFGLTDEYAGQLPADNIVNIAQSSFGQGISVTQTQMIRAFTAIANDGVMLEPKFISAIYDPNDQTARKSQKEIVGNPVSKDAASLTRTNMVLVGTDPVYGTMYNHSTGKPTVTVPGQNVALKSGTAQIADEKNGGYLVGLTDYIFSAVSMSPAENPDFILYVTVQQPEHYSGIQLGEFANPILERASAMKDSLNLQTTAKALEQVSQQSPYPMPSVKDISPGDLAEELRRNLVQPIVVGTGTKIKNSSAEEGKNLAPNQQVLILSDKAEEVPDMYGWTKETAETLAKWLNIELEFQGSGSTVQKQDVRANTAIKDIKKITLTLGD
Assay: Displacement of Biocillin FL from Streptococcus pneumoniae 3413 PBP2X
// classify: if (IC50 < 200 nM) 1.0 else 0.0

Q. Here's an entry: C[C@@H](O)[C@H]1C(=O)N2C(C(=O)O)=C([C@H]3CCCO3)S[C@H]12 . Is its IC50 below 200 nM?
A. 0.0

Q. Here's an entry: CC1(C)S[C@@H]2[C@H](NC(=O)[C@H](N)c3ccc(O)cc3)C(=O)N2[C@H]1C(=O)O . Is its IC50 below 200 nM?
A. 1.0

Q. Here's an entry: CC1(C)S[C@@H]2[C@H](NC(=O)Cc3ccccc3)C(=O)N2[C@H]1C(=O)O . Is its IC50 below 200 nM?
A. 0.0

Q. Here's an entry: C[C@@H](O)[C@H]1C(=O)N2C(C(=O)O)=C(SCCNC=N)C[C@H]12 [IMIPENEM ANHYDROUS] . Is its IC50 below 200 nM?
A. 0.0

Q. Here's an entry: CO/N=C(\C(=O)N[C@@H]1C(=O)N2C(C(=O)O)=C(COC(N)=O)CS[C@H]12)c1ccco1 . Is its IC50 below 200 nM?
A. 1.0

---

Assignment: determine reported IC50 for the given compounds.
Assay: Displacement of Biocillin FL from Streptococcus pneumoniae 3676 PBP3
Report the value in µg/mL with no unit label.

Q. Quote IC50 reported for C[C@@H](O)[C@H]1C(=O)N2C(C(=O)O)=C([C@H]3CCCO3)S[C@H]12 please.
A. 0.009

Q. Quote IC50 reported for C[C@@H](O)[C@H]1C(=O)N2C(C(=O)O)=C(SCCNC=N)C[C@H]12 [IMIPENEM ANHYDROUS] please.
A. 0.188

Q. Quote IC50 reported for CC1(C)S[C@@H]2[C@H](NC(=O)Cc3ccccc3)C(=O)N2[C@H]1C(=O)O please.
A. 0.007

Q. Quote IC50 reported for CC1(C)S[C@@H]2[C@H](NC(=O)[C@H](N)c3ccc(O)cc3)C(=O)N2[C@H]1C(=O)O please.
A. 0.019

Q. Quote IC50 reported for CO/N=C(\C(=O)N[C@@H]1C(=O)N2C(C(=O)O)=C(COC(N)=O)CS[C@H]12)c1ccco1 please.
A. 0.048

---

Assignment: determine reported log10 IC50 for the given molecules.
Test: Displacement of Biocillin FL from Streptococcus pneumoniae 24 PBP3
The common logarithm of IC50 in µg/mL is what is listed.

Q. Quote log10 IC50 reported for CO/N=C(\C(=O)N[C@@H]1C(=O)N2C(C(=O)O)=C(COC(N)=O)CS[C@H]12)c1ccco1 please.
A. -2.70

Q. Quote log10 IC50 reported for CC1(C)S[C@@H]2[C@H](NC(=O)[C@H](N)c3ccc(O)cc3)C(=O)N2[C@H]1C(=O)O please.
A. -1.31

Q. Quote log10 IC50 reported for C[C@@H](O)[C@H]1C(=O)N2C(C(=O)O)=C([C@H]3CCCO3)S[C@H]12 please.
A. -1.82

Q. Quote log10 IC50 reported for CC1(C)S[C@@H]2[C@H](NC(=O)Cc3ccccc3)C(=O)N2[C@H]1C(=O)O please.
A. -2.40

Q. Quote log10 IC50 reported for C[C@@H](O)[C@H]1C(=O)N2C(C(=O)O)=C(SCCNC=N)C[C@H]12 [IMIPENEM ANHYDROUS] please.
A. -0.70
